Where do the numbers come from? From the nanobody polyreactivity screen of Harvey et al. (2022).

MEASUREMENT_DESCRIPTION: yeast display, Sf9 membrane polyspecificity reagent, FACS + sequencing; frameworks hold sequencing errors

- SEQUENCE_CODE: "QVQLVESGGGLVQAGGSLRLSCAASGSTFDVYAMGWYIQAPGKERELVASIRWSGGSTNYADSVKGRFTISRDNAKNTVYLQMNSLKPEDTAVYYCNADVGTGFRPGQYDYWGQGTQVTLSS"
  polyreactivity (PSR sort gate): "low polyreactivity"
- SEQUENCE_CODE: "QDQLVESGGGLVQAGGSLRLSCAASGRIFGYYVMGWYRQAPGKERELVAAISGSGGSTYYADSVKGRFTISRDNAKNTVYLQMNSLKPEDTAVYYCNKRATRSRRRGYWGQGTQVTVSS"
  polyreactivity (PSR sort gate): "low polyreactivity"
- SEQUENCE_CODE: "QVQLVESGGGLVQAGGSLRLSCAASGRIFAYYAMGWYRQAPGKERELVAAISGSDGSTYYADSVKGRFTISLDNAKNTVYLQMNSLKPEDTAVYYCAAQDTPGYDYWGQGTQVTVSS"
  polyreactivity (PSR sort gate): "low polyreactivity"
- SEQUENCE_CODE: "QVQLVESGGGIVQAGGSLRLSCAASGSIFEPNAMGWYRQAPGQEREFVAAISGSGGSTYYADSVKGRFTSSRDNAKNTVYLQRNSLKPEDTAVYYCNALYLRTTPQDYDYWGQGTQVTVSS"
  polyreactivity (PSR sort gate): "high polyreactivity"
- SEQUENCE_CODE: "QVQLVESGGGLVQAGGSLRLSCAASGSIFRFYAMGWYRQAPGKERELVAGITWSGASTYYADSVKGRFTISRDNAKNTVYFQMNSLKPEDSAVYYCAAKSLIVRYDSWGQGTQVSVSS"
  polyreactivity (PSR sort gate): "high polyreactivity"
